B1: STK38L (parent)
chain: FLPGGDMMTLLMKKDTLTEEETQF

Variants of: B1
Test: protein stability index of a GFP-peptide fusion (GPS, HEK-293T) (PSI 1-6); higher = more stable;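 further: lentivirally expressed fusions sorted by FACS into six bins by GFP to DsRed ratio, PSI derived from sequencing read proportions per bin multiplied by bin number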
Condition: c terminus: a fixed tail appended
Property: protein stability index; scope: individual variants
Reply: number alone, nothing else.

FLPGGDMHTLLMKKDTLTEEETQF [M8H] | 3.95

Request: Need protein stability index of FLPGQDMMTLLMKKDTLTEEETQF [G5Q] , thanks.
Result: 2.72

Request: Data request, read-out protein stability index, for FLPGGDMMTLLMKKDTLTEEETQK [F24K]
Result: 2.53

Request: Dear colleague, I am looking for the recorded protein stability index of the following variant: FLPGGDMMTLLCKKDTLTEEETQF [M12C]
Result: 3.16

Request: Given FLPDGDMMTLLMKKDTLTEEETQF [G4D] , state its recorded protein stability index.
Result: 3.84

Request: Endpoint output: protein stability index of FLPGGDGMTLLMKKDTLTEEETQF [M7G] . Value?
Result: 3.16
